Target: T1, human cMet on cells (HT29 human colorectal cancer cells; S114 cells; human colon tissue and organoids) (human, UniProt P08581 25-1390)
T1 construct: whole, on cells; also called mesenchymal-epithelial transition factor
T1 sequence (P08581 25-1390): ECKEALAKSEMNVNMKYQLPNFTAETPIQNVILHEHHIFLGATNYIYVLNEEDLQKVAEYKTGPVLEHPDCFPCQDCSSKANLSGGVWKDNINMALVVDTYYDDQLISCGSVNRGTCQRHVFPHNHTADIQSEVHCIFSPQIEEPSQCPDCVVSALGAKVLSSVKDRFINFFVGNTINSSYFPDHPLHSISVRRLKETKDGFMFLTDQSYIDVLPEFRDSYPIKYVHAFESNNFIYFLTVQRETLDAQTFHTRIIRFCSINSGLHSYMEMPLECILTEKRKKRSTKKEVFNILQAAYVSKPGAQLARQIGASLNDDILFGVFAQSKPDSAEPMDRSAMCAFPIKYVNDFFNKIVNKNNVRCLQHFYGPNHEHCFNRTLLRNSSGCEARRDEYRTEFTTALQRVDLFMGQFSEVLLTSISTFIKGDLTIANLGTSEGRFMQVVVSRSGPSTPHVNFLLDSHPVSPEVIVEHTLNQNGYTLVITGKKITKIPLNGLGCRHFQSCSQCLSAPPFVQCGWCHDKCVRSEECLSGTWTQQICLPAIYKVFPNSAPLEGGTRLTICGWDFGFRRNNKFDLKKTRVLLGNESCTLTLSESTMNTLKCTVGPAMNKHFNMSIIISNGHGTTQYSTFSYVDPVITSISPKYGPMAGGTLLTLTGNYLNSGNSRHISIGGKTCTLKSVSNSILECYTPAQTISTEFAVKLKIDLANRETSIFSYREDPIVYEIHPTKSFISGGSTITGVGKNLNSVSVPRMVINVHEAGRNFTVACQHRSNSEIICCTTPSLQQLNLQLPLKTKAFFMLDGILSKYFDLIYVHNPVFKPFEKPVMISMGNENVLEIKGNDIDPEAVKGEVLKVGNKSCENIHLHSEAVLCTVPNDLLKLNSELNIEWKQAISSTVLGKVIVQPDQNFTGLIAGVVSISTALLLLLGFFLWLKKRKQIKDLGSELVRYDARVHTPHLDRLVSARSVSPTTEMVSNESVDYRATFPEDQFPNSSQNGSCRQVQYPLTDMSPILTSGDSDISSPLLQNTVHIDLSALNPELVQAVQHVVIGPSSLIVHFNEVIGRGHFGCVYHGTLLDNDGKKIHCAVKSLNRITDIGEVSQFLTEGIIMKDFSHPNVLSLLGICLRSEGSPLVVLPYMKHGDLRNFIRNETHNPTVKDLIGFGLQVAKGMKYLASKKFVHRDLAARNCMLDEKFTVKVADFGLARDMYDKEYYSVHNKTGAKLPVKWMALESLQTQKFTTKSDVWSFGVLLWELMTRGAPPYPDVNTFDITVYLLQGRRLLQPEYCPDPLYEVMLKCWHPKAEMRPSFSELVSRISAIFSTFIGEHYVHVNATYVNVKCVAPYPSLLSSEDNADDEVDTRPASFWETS
Test: flow cytometry, QQT*-Cy5.5 at 0-200 nmol/L on HT29 cells, 1 hour at 4 °C
Protocol: We assessed the binding affinity of QQT*-Cy5.5 to HT29 cells by measuring the apparent dissociation constant. HT29 cells were blocked with 0.5% BSA, and then approximately 10⁵ cells were incubated with QQT*-Cy5.5 at concentrations of 0, 10, 25, 50, 75, 100, 125, 150, or 200 nmol/L for 1 hour at 4° C. […] I₀ and Iₘₐₓ are the initial and maximum fluorescence intensities, corresponding to no peptide and peptide saturation, respectively, and [X] represents the concentration of the bound peptide.³⁴ […]
Ends that are not written are not given here. Cy5.5 = cyanine fluorophore coupled as NHS ester to the lysine side chain
Measured metric: pKd
Remember the convention: pKd equals -log10 of concentration in molar.

// query Give the measured pKd for QQTNWSLGGGSK(Cy5.5)-NH2 (Linear monomer made by Fmoc solid-phase synthesis; m/z 1827.67; also called target peptide)
// result 7.24
